target: human Cereblon WT GST-tagged protein (Homo sapiens, UniProt Q96SW2)
Construct: purchased CISBIO 64BDCRBNPEH
Sequence (Q96SW2 whole entry): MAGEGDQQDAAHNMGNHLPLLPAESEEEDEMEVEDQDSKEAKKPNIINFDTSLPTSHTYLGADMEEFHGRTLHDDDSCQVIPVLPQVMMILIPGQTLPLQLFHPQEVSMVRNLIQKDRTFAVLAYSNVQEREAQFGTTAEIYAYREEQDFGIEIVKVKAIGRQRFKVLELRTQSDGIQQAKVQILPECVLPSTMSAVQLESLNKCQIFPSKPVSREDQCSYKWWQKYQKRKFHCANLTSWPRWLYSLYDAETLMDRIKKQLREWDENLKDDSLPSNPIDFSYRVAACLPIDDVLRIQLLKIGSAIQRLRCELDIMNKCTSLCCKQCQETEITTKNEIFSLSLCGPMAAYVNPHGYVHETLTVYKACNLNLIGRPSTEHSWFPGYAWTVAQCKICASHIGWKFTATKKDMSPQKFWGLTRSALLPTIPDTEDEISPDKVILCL
method: CRBN-binding affinity, HTRF (CEREBLON BINDING kit)
testParameters: read-out: Inhibition Rate at 0.5 µM (%)
Measured inhibition at 0.5 µM accompanies every entry in the list below.

- compound: "O=C1CCC(N2Cc3cc(CN4CCN(c5ccnc(Cl)c5F)CC4)ccc3C2=S)C(=O)N1 (stereo not drawn)"
  target: "human Cereblon WT GST-tagged protein (Homo sapiens, UniProt Q96SW2)"
  inhibition at 0.5 µM: "60 to 80%"

Query :: Which inhibition at 0.5 µM is listed for O=C1CCC(N2Cc3cc(CN4CC=C(c5cccc(F)c5Cl)CC4)ccc3C2=S)C(=O)N1 (stereo not drawn) ?
Result :: 40 to 53%

Query :: If you can, please state the reported inhibition at 0.5 µM value of O=C1CCC(N2Cc3c(CN4CCN(CC5=C(c6ccc(F)cc6)CCCC5)CC4)cccc3C2=S)C(=O)N1 (stereo not drawn) .
Result :: 30 to 40%

Query :: Entry O=C1CCC(N2Cc3c(CN4CCN(c5cccc(Br)c5)CC4)cccc3C2=S)C(=O)N1 (stereo not drawn) : reported inhibition at 0.5 µM = ?
Result :: 30 to 40%

Query :: // returns reported inhibition at 0.5 µM for input O=C1CCC(N2Cc3c(CN4CCN(c5nc(Cl)nc6ccsc56)CC4)cccc3C2=S)C(=O)N1 (stereo not drawn)
Result :: 80 to 100%

Query :: What measured inhibition at 0.5 µM goes with O=C1CCC(N2Cc3c(CN4CCC(C5CCOc6cc(F)ccc65)CC4)cccc3C2=S)C(=O)N1 (stereo not drawn) ?
Result :: 40 to 53%

Query :: Please give the measured inhibition at 0.5 µM for this compound: O=C1CCC(N2Cc3c(CN4CCN(c5nc(N6CCOCC6)nc6ccsc56)CC4)cccc3C2=S)C(=O)N1 (stereo not drawn)
Result :: 40 to 53%

Query :: # lookup: inhibition at 0.5 µM of O=C1CCC(N2Cc3c(CN4CCCN(c5cccc(Cl)c5Cl)CC4)cccc3C2=S)C(=O)N1 (stereo not drawn)
Result :: 40 to 53%

Query :: Name the reported inhibition at 0.5 µM value associated with the compound O=C1CCC(N2Cc3c(CN4CCN(c5ccnc(Br)c5F)CC4)cccc3C2=S)C(=O)N1 (stereo not drawn)
Result :: 60 to 80%

Query :: Param item = Cc1cccc(N2CCN(Cc3ccc4c(c3)CN(C3CCC(=O)NC3=O)C4=S)CC2)n1 (stereo not drawn) ; retrieve measured inhibition at 0.5 µM.
Result :: 60 to 80%
